# Tested on: MS2 coat protein
# assay_notes: apparent KD of MS2 coat protein; designed switch direction (-1 OFF switch, 1 ON switch): -1; higher = weaker reporter binding
# run_conditions: Eterna round: R95; input ligand: microRNA oligo, concentration not stated
Short version: apparent KD of MS2 coat protein at least 30 nM is T, less is F.

Take a look at these entries with their results.
INSERT INTO assay_data (chain, label_value) VALUES
  ('GCUGCGCGAGGAUAUGCGGUUCGCGCUGUGGCCCGUGGCGGACAUGAGGAUCACCCAUGUAGAAGGCGUGCGGG [Apr-15 SS2-58] (puzzle: Exclusion 2)', 'F'),
  ('UAGAUGGGAGGAUAUACGUAGAUACAGAUUCAUGUAGUGCUACAUGAGGAUCACCCAUGUAGAAGGCCCGUCUU [JL-ex2-2.19 Mayanne mod] (puzzle: Exclusion 2)', 'T'),
  ('UUUUUUGUUGUGAGGAUAUCGUAUUUUUUUUGUUACGAGAAGGCACAUGAGGAUCACCCAUGUUUUUUGAUGUU [JR_BMOE4_Sub065] (puzzle: Brourd''s mod of Exclusion 4)', 'F'),
  ('AAUCCACAUGAGGAUCACCCAUGUCAGGAUAUCGCGCGCGCGGUUUCGGUCGCGCGCGCGAGAAGGGACGGCUG (puzzle: Exclusion 1)', 'F'),
  ('CCGAAUAUGCAGGAUAUCGUAUCGGAGACGAUACGAGAAGGGCAAACAUGAGGAUCACCCAUGUUCCUUAACGG [Mat - Exclusion 6 - Eli Mod - D75] (puzzle: Exclusion 6)', 'F'),
  ('AAAACACAUGAGGAUCACCCAUGUGAGGAUAUGUUCAUUGUGAGCAAACUUAUGAUGAACAGAAGGCACAUAAA [JR_Exclusion1_Sub017] (puzzle: Exclusion 1)', 'T'),
  ('GAAAAGGUAGGAUAUACGAAAAAAAAGGGUAGAAAAAAAAUACAUGAGGAUCACCCAUGUAGAAGGACCAAAAG [salish99_ex2_r3_060] (puzzle: Exclusion 2)', 'F'),
  ('CCUAGACAUGAGGAUCACCCAUGUGAGGAUAUGAUGCGAAUAAAGAAAGAAGAAAGCAUCAGAAGGCACAUAUG [Fiskers Ex 1 - 2] (puzzle: Exclusion 1)', 'T'),
  ('UUUAAUUUUUUUUUUUUACAAGCUUUUUGCUCGUCUUAUACAUGAGGAUCACCCAUGUAGGUGGGAGGUAAAUUAUC [JMF 79] (puzzle: Sensor v3, turn-off variant 2)', 'T'),
  ('CUCCUCAUGGCGCCUAAACACAUGAGGAUCACCCAUGUACAGGCCUUUUGCCGUCUUAUAAUAAAACCGAGGAUGCG [Lainxezabe] (puzzle: Sensor v3, turn-off variant 1)', 'T');

[ask] Test whether the sequence UCAUACGGUGAGGAUAUCUCCGCUAAAGUGUGUAGAGAAGGCGCUACAUGAGGAUCACCCAUGUUUAUGGGCAG [Ex-6 Malc#12] (puzzle: Exclusion 6) records apparent KD of MS2 coat protein of 30 nM or higher.
[reply] T

----------
# Tested on: MS2 coat protein
# assay_notes: apparent KD of MS2 coat protein; designed switch direction (-1 OFF switch, 1 ON switch): -1; higher = weaker reporter binding
# run_conditions: input ligand: FMN 200 uM
Assignment: determine reported apparent KD of MS2 coat protein for the given sequences.
Answers are plain numbers, in nM.

Recorded apparent KD of MS2 coat protein, per entry:
INSERT INTO assay_data (chain, readout_label, unit_text, recorded_result) VALUES
  ('UAUGGUUAAGUCAGGAUAUACAUACAGAUAUCUGAGUAGAAGGGACAUGAGGAUCACCCAUGUAUGGUAGUGUU [Ex4 #54] (Eterna round: R97, puzzle: Brourd''s mod of Exclusion 4)', 'apparent KD of MS2 coat protein', 'nM', 169),
  ('AGGCGGAAAGUAAGGAUAUCUUGACCAAAGGGUUGAGAGAAGGUACAUGAGGAUCACCCAUGUGUUUACCGCCA [Shrinking Claw (Vienna2)] (Eterna round: R97, puzzle: Brourd''s mod of Exclusion 4)', 'apparent KD of MS2 coat protein', 'nM', 12.4),
  ('GGAUCGAAUGUGAGGAUAUACCUAUGGAUACAUAGGUAGAAGGCACAUGAGGAUCACCCAUGUCCUAACGGUCC [Eli bmx4 4.14] (Eterna round: R97, puzzle: Brourd''s mod of Exclusion 4)', 'apparent KD of MS2 coat protein', 'nM', 479);

Attention now shifts to the item below.
So for AGAGAAUAGUCAGGAUAUGUGAAUAGAUAGAGAACAGAAGGGACACAUGAGGAUCACCCAUGUGAAGUCUUGAGGCUGCGUGGA [Prohibition 21 - Jieux - Exclusion NG 1] (Eterna round: R96, puzzle: Exclusion NG 1) , the logged apparent KD of MS2 coat protein turned out to be 22.1

----------
# System: MS2 coat protein
# assay_notes: apparent KD of MS2 coat protein; higher = weaker reporter binding
# run_conditions: Eterna round: R107; input ligand: arginine 13.2 mM
Tick Fulfilled if apparent KD of MS2 coat protein is 0.02 µM or greater. Tick Not fulfilled if apparent KD of MS2 coat protein is less than 0.02 µM.

INSERT INTO measurements (chain, target_or_system, label_value) VALUES
  ('AUUUUUCUAUCAGAUACCAGACAACUCCAAACAUGAGGAUCACCCAUGUAUUGGGUGUUCGUCCCUUGGCAGCUGUUAAUGUUAA [JR_SSTheophyB_Sub003]', 'MS2 coat protein', 'Fulfilled'),
  ('ACAUGAGGAUCACCCAUGUAUGACUAUCCUCGAGGACCGGUACGGCCGCCACUCGAAGGAGUGGCUCGCGAGUGCGCACUUGCAA [5'' end]', 'MS2 coat protein', 'Not fulfilled'),
  ('GGGUGGUAGGCGGCCGCCACUGAUUUUUAUAUAUAUAUAACAUGAGGAUCACCCAUGUAGAUAUGCAGGACCGGGCCUGUUGUUU [aaaM]', 'MS2 coat protein', 'Fulfilled');

[ask] Item CGGUACAUGAGGAUCACCCAUGUGUCGGAUACCAGAGAGCCGGCUCUCCCUUGGCAGCUGGUGCGACAUGAGGAUCACCCAUGUG [Exclusion Theophylline A GF19] with apparent KD of MS2 coat protein of 0.02 µM or above?
[reply] Fulfilled

[ask] Exam item: decide whether the reported apparent KD of MS2 coat protein for AAAAUCCUCCAUGAGGAUCACCCAUGGGAAGGAGCGCCCGAAAGGGCAGGUAGGUCGCCCAUGAGGAUCACCCAUGGAACCUAAA [ArgAX 26 #DoubleMS2 #OpenEnded #AlternativeMS2] is at least 0.02 µM.
[reply] Fulfilled

----------
# Test system: MS2 coat protein
# assay_notes: apparent KD of MS2 coat protein; designed switch direction (-1 OFF switch, 1 ON switch): 1; higher = weaker reporter binding
# run_conditions: input ligand: microRNA oligo, concentration not stated
Exercise: state measured apparent KD of MS2 coat protein for each of the sequences provided.
Numbers only, in nM.

INSERT INTO results (chain, unit_text, recorded_result) VALUES
  ('AACGGCAGAUGAGGAUAUACUUGCCAUGCGAGCACGCUCGCUACAUGAGGAUCACCCAUGUAUGGGUAGAAGGCAUCAUGAUAC [Eternabot solution 39] (Eterna round: R96, puzzle: Same State NG 2)', 'nM', 102);

Give me apparent KD of MS2 coat protein for each of these sequences, listed below.
1. AAACGGUCGCUGCGGCGGCCACAUGAGGAUCACCCAUGUACAUAGGAUAUCGCCUAAAAUACUGGCGAGAAGGGUGAUUAAAGA [Ergegeti] (Eterna round: R96, puzzle: Same State NG 3)
2. GCCAACUCAUGAGGAUAUGGCACCUUAUUGGUGCCAGAAGGCAUGUCAAUUGACAUGAGGAUCACCCAUGUAUUAUAGUUGGCA [Fiskers NG1ss - 22] (Eterna round: R96, puzzle: Same State NG 1)

[reply]
36.2
267

Provide the reported apparent KD of MS2 coat protein of each entry below, same order.
1. AGAUCUCCUCUAGGAUAUCCCUAACAUGAGGAUCACCCAUGUCCGAAUUGCAGACAUAGGCCGAGGGAGAAGGAGAAACCGUCG [Eternabot solution 41] (Eterna round: R96, puzzle: Same State NG 2)
2. GCUAGAAUUAAAGCCAACAUGAGGAUCACCCAUGUAUGUUGGCAGGAUAUCGUUUGCUUUGCAAACGAGAAGGGCCAAACUAGC [JL SSNG3 1.01] (Eterna round: R96, puzzle: Same State NG 3)
3. AAACAUGAGCGAGGAUAUACGGAGGAUCACCCUGUAGAAGGCGCAUGUAAAACAACAUGAGGAUCACCCAUGUCAUGUACAUGA (Eterna round: R96, puzzle: Same State NG 1)
4. AGCUAGUACCGAGGAUAUACGUACAUGAGGAUCACCCAUGUAUACAUGAAAUAAUGAGACUACAUGUAGAAGGCGGUACUAGCA [Mat - Same State NG 2 - JL mod - D50] (Eterna round: R96, puzzle: Same State NG 2)
5. AGAGGAGGCGCAGGAUAUACGACGGAGGACGUGGUAGAAGGGUGCAUGCGAAAACAUGAGGAUCACCCAUGUACCGCGCGACGA [ssng1 c] (Eterna round: R96, puzzle: Same State NG 1)
6. AAUCGUUUGAUAGGAUAUCGUUAUACAUGAGGAUCACCCAUGUUUACCACGCUGGUUUUUCGUACCGAGAAGGAUUCUGAUGAU [JL JR sub007 mod 6] (Eterna round: R96, puzzle: Same State NG 2)

[reply]
[576, 76.1, 23.4, 33.5, 30.1, 20.2]
